Quick reference: IC50 of the listed items.
TEST_SYSTEM: UniProt O15382
Sequence (O15382 28-392): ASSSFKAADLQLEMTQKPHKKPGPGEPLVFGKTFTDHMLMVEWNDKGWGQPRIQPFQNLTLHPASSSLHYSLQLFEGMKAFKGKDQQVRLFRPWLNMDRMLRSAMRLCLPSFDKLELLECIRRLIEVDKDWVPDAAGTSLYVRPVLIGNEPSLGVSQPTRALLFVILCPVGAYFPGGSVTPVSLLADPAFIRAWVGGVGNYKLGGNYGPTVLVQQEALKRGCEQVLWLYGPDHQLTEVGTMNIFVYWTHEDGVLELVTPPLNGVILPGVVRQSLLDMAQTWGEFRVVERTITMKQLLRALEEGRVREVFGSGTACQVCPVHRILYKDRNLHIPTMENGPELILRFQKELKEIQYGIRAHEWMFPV
PROCEDURE_SUMMARY: BCAT2 in vitro cell inhibition using engineered A549 cells (KMV cell assay, 13C6-KMV by LC-MS/MS)
Type: cell-based
Design: The result was an engineered A549 cell line that expressed endogenous BCAT2; endogenous in cells; host or cells: A549 cells with MUT and BCAT1 knocked out by CRISPR/CAS9
ASSAY_CONTEXT: average where tested multiple times
ATTRIBUTE_MEASURED: IC50

compound=O=C(N[C@H]1CCC[C@@H](n2c(-c3ccccc3F)nc3cnc(-n4nccn4)nc32)C1)c1ncc(C(F)F)s1 assay_value="≤ 100 nM"
compound=CC(C)C(=O)c1nc2cnc(-c3nc[nH]n3)cc2n1[C@@H]1CCC[C@H](NC(=O)c2ncc(Cl)s2)C1 assay_value="100 to 500 nM"
compound="CC(=O)N1CC(NC(=O)c2ccc(Br)s2)CC(n2c(-c3ccccn3)nc3ccc(-c4ncon4)cc32)C1 (centres unmarked)" assay_value="100 to 500 nM"
compound=O=C(N[C@H]1CCC[C@@H](n2c(-c3ccccc3F)nc3cnc(-c4ncn(C(F)F)n4)cc32)C1)c1ncc(Cl)s1 assay_value="≤ 100 nM"
compound=O=C(N[C@H]1CCC[C@@H](n2c(-c3ccccc3F)nc3cnc(-n4nccn4)cc32)C1)c1ccc(Cl)s1 assay_value="≤ 100 nM"
